# assay_system: T1, SIRPa on human monocytes (human, UniProt P78324 31-504)
# T1 construct: also called human monocytes (v1/v1); SIRPa variant 1 on monocytes
# assay_comment: flow cytometry on human monocytes v1/v1 (Fc receptors blocked), PE anti-human Fc; readout % stained monocytes
recorded_metric: EC50 (µg/mL)
Give bare numbers, in µg/mL.

{"columns": ["binder", "EC50, µg/mL"],
 "data": [
  ["HFLB (humanized 18D5 variant) (antibody, human IgG4 S228P, kappa, V domains shown) VH: EVQLVQSGAEVKKPGESLRISCKASGYSFTSYWVHWVRQMPGKGLEWMGNIDPSDSDTHYSPSFQGHVTLSVDKSISTAYLQLSSLKASDTAMYYCVRGGTGTMAYFAYWGQGTLVTVSS VL: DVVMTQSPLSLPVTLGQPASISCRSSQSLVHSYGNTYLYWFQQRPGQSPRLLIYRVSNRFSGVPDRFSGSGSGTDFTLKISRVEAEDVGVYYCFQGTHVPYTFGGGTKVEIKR", 0.201]
]}

// input: 3 binders below; output: EC50 for each
1. HFLA (humanized 18D5 variant) (antibody, human IgG4 S228P, kappa, V domains shown) VH: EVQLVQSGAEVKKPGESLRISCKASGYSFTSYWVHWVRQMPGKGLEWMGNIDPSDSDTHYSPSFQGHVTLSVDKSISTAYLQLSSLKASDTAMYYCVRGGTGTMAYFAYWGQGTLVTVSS VL: DVVMTQSPLSLPVTLGQPASISCRSSQSLVHSYGNTYLYWYQQRPGQSPRLLIYRVSNRFSGVPDRFSGSGSGTDFTLKISRVEAEDVGVYFCFQGTHVPYTFGGGTKVEIKR
2. HALA (humanized 18D5 variant) (antibody, human IgG4 S228P, kappa, V domains shown) VH: EVQLVQSGAEVKKPGESLRISCKASGYTFTSYWVHWVRQMPGKGLEWIGNIDPSDSDTHYNQKFKDHVTLSVDKSISTAYLQLSSLKASDTAMYYCVRGGTGTMAWFAYWGQGTLVTVSS VL: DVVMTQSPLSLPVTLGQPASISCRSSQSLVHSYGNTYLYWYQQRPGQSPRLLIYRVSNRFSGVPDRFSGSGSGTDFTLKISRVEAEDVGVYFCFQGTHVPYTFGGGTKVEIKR
3. HEFLB (humanized 18D5 variant) (antibody, human IgG4 S228P, kappa, V domains shown, also called anti-SIRPa HEFLB; HEFLB variant) VH: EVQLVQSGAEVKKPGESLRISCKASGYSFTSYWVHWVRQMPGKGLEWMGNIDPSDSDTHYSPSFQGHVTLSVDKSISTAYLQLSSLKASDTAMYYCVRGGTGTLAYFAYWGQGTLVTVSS VL: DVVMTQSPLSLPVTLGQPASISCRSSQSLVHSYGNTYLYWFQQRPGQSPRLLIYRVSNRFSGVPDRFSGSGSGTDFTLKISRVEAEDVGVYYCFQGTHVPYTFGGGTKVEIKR

1. 0.174
2. 0.242
3. 0.208
